MEASUREMENT_TARGET: hA2a/CHO (Homo sapiens (Human), UniProt P29274)
Sequence (P29274 whole entry): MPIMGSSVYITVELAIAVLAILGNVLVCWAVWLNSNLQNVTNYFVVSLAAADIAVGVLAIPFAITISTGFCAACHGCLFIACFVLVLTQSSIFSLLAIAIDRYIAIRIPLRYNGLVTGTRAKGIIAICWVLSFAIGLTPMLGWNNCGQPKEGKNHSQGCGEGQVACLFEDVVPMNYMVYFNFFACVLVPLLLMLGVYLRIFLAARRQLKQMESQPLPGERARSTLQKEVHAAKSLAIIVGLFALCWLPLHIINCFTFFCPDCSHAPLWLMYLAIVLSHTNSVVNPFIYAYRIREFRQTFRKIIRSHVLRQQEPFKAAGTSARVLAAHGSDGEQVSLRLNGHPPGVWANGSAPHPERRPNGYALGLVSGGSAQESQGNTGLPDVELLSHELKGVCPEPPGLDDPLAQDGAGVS
RUN_DESCRIPTION: cAMP inhibition assay in hA2a/CHO cells, 10 μM adenosine;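 further: compounds added to cells 30 min ahead of adenosine, then a further 30 min at 37 °C with adenosine before cAMP detection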
Format: cell-based
STATED_CONDITIONS: read-out: cAMP & FLIPR IC50 (nM) hA2a
Listed here are compounds together with their documented IC50.
# output: bare number, implied unit nM

compound="Cn1cc(-c2nc(C(=O)NCc3cccc(N4CCC4)n3)c(N)nc2-c2ncco2)ccc1=O [Example 26]" observed_result=108

Return IC50 (reported value) for this compound: Cc1cnc2ccc(-c3nc(C(=O)N[C@@H]4CCN(C)C4)c(N)nc3-c3ccc(F)cc3)cn12 [Example 144]
4.6

Return IC50 (reported value) for this compound: Cc1cnc2ccc(-c3nc(C(=O)NC4CC4)c(N)nc3-c3ncco3)cn12 [Example 245]
3.8

Return IC50 (reported value) for this compound: COC1CCCC(NC(=O)c2nc(-c3ccc4ncc(C)n4c3)c(-c3ncco3)nc2N)C1 (single isomer, unassigned; isomer 1) [Example 292]
0.4
